study.target: CIB1 and αIIb interaction (GST-CIB1 : F-αIIb peptide) (Homo sapiens)
Construct: made in house; host or cells: BL-21 plus RIL cells (E. coli)
Sequence (Q99828 whole entry): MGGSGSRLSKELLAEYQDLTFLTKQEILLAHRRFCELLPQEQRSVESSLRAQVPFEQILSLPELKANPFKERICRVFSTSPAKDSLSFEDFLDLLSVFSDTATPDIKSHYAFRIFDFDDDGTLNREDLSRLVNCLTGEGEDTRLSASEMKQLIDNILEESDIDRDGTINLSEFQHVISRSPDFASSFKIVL
assay.procedure: FP assay, 384-well format (screen)
Type: binding
experimental.setup: F-αIIb peptide; read-out: 384-well SCREEN IC50
value.kind: IC50 (µM)
Write down the numeric answer in µM and omit the unit.

QUERY: // returns reported IC50 for input "O=C(c1cccs1)c1no[n+]([O-])c1C(=O)c1cccs1"
RESULT: 7.9

QUERY: I have this compound here, "N#Cc1cnc(NS(=O)(=O)c2ccc(NC(=O)Cc3ccc(Cl)c(Cl)c3)cc2)s1.O=C(O)C(F)(F)F" , and I need its recorded IC50.
RESULT: 7.9

QUERY: What does the data say about its IC50? Entry: "Nc1c(Cc2ccc(S(N)(=O)=O)cc2)c(-c2cccc(-c3ccccc3)c2)nn1-c1nc(C(=O)O)cs1.O=C(O)C(F)(F)F"
RESULT: 14.1

QUERY: # input compound: CC[S+]([O-])c1nc(-c2cccc(OCc3ccccc3)c2)cc(C(F)(F)F)n1 (centres unmarked) ; wanted: its IC50
RESULT: 0.32

QUERY: # query: IC50 of entry "O=C(Cc1ccc(Cl)c(Cl)c1)Nc1ccc(S(=O)(=O)Nc2nnc(-c3ccccn3)s2)cc1.O=C(O)C(F)(F)F"
RESULT: 11.2

QUERY: Query: IC50; subject: "CC[C@@H](CO)NC(=O)[C@@H]1C=C2c3cccc4[nH]cc(c34)C[C@H]2N(C)C1.O=C(O)/C=C\C(=O)O"
RESULT: 60

QUERY: I am curious: what IC50 value has been reported for "C=CCNc1oc(-c2cccc3ccccc23)nc1C#N.O=C(O)C(F)(F)F" ?
RESULT: 4

QUERY: Using the record for "O=Cc1c(-c2ccccc2)no[n+]1[O-]" , report its IC50.
RESULT: 14.1

QUERY: Value lookup for IC50; key = "Cc1cc2c(C(C)C)c(O)c(O)c(C=O)c2c(O)c1-c1c(C)cc2c(C(C)C)c(O)c(O)c(C=O)c2c1O"
RESULT: 2.7

QUERY: Form field: reported IC50 of CC(O)c1ccc(-c2ccc3ncnc(NCc4nccs4)c3c2)o1.O=C(O)C(F)(F)F (centres unmarked)
RESULT: 14.1

QUERY: # query: IC50 of entry O=C(O)C(F)(F)F.O=c1c2ccccc2nc2sc(Nc3cccc(N4CCN5CCCCC5C4)c3)nn12 (centres unmarked)
RESULT: 120

QUERY: Which IC50 value belongs to "Cc1ccc(S(=O)(=O)Nc2cnccc2C(=O)Nc2nc(-c3nc4ccccc4s3)cs2)cc1.O=C(O)C(F)(F)F" ?
RESULT: 22.4

QUERY: Tell me the measured IC50 of "Cc1ccc(-c2cc(-c3nn(-c4nc(C(=O)O)cs4)c(CC4CC4)c3Cc3ccc(S(N)(=O)=O)c(F)c3)ccc2F)o1" , please.
RESULT: 4.5

QUERY: IC50 lookup needed for "Cl.NC(CO)(CO)CCc1ccc(Sc2cccc(OCc3ccccc3)c2)cc1Cl" , thanks.
RESULT: 31.6

QUERY: Can you share its IC50? I mean this compound: "COC(=O)[C@]12CCC(C)(C)C[C@H]1[C@H]1C(=O)C=C3[C@@]4(C)C=C(C#N)C(=O)C(C)(C)[C@@H]4CC[C@@]3(C)[C@]1(C)CC2"
RESULT: 3.5

Reference source: paper PMC11249646
